Data provenance is patent US9556165B2.

- System: A. baumannii ATCC15308
- MEASUREMENT NOTES: MIC determination, broth microdilution (CLSI)
- Format: cell-based
- STUDY CONDITIONS: Acinetobacter baumannii, ATCC15308, strain 9
Give measured MIC for each item. Keep answers brief.
Give the number; µg/mL is assumed, so skip it.

Ask: // lookup MIC for C[C@H]1[C@H](NC(=O)/C(=N\OCc2ccc(C(=N)N)cc2)c2csc(N)n2)C(=O)N1S(=O)(=O)O
Reply: 4

Ask: // lookup MIC for CC1(C)[C@H](NC(=O)/C(=N\O[C@@H](COc2ccc(C(=N)NCC3CCCN3)cc2)C(=O)O)c2csc(N)n2)C(=O)N1OS(=O)(=O)O (stereo partly drawn)
Reply: 1

Ask: // lookup MIC for C[C@H]1[C@H](NC(=O)/C(=N\OCCOc2ccc(C(=N)NNC=O)cc2)c2csc(N)n2)C(=O)N1S(=O)(=O)O
Reply: 16

Ask: // lookup MIC for C[C@H]1[C@H](NC(=O)/C(=N\OCCOc2ccc(C(=N)N)cc2)c2nc(N)sc2Cl)C(=O)N1S(=O)(=O)O
Reply: 2

Ask: // lookup MIC for CC1(C)[C@H](NC(=O)/C(=N\OCCOc2ccc(C(=N)NC3CNNC3)cc2)c2csc(N)n2)C(=O)N1OS(=O)(=O)O
Reply: 4

Ask: // lookup MIC for C[C@H]1[C@H](NC(=O)/C(=N\OCCOc2ccc(C(=N)N)nc2)c2csc(N)n2)C(=O)N1S(=O)(=O)O
Reply: 1

###

- Test system: E. cloacae 34654
- MEASUREMENT NOTES: MIC determination, broth microdilution (CLSI)
- Type: cell-based
- STUDY CONDITIONS: Enterobacter cloacae, 34654, strain 3
Give measured MIC for each item. Keep answers brief.
Give the number; µg/mL is assumed, so skip it.

Ask: // lookup MIC for CN1CC(NC(=N)c2ccc(OC[C@H](O/N=C(\C(=O)N[C@@H]3C(=O)N(OS(=O)(=O)O)C3(C)C)c3csc(N)n3)C(=O)O)cc2)C1
Reply: 0.125

Ask: // lookup MIC for C[C@H]1[C@H](NC(=O)/C(=N\OCCOc2ccc(C(=N)N)nc2)c2csc(N)n2)C(=O)N1S(=O)(=O)O
Reply: 0.125

Ask: // lookup MIC for CC1(C)[C@H](NC(=O)/C(=N\OCc2ccc(C(=N)N)cc2)c2csc(N)n2)C(=O)N1OS(=O)(=O)O
Reply: 2

Ask: // lookup MIC for C[C@H]1[C@H](NC(=O)/C(=N\OCCOc2cnc(C(=N)N)cn2)c2csc(N)n2)C(=O)N1S(=O)(=O)O
Reply: 0.25

###

- System: strain 21
- MEASUREMENT NOTES: MIC determination, broth microdilution (CLSI)
- Type: cell-based
QUANTITY NAME: MIC (µg/mL)
Give the number; µg/mL is assumed, so skip it.

Ask: // lookup MIC for C[C@H]1[C@H](NC(=O)/C(=N\OCc2cc(C(=N)N)cs2)c2csc(N)n2)C(=O)N1S(=O)(=O)O
Reply: 1

Ask: // lookup MIC for C[C@H]1[C@H](NC(=O)/C(=N\OCCOc2ccc(C(=N)N)cc2N)c2csc(N)n2)C(=O)N1S(=O)(=O)O
Reply: 4

Ask: // lookup MIC for C[C@H]1[C@H](NC(=O)/C(=N\OCCOc2ccc(C(=N)N)cc2)c2csc(N)n2)C(=O)N1S(=O)(=O)O
Reply: 0.125

Ask: // lookup MIC for CC1(C)[C@H](NC(=O)/C(=N\OCCOc2ccnc(C(=N)N)c2)c2csc(N)n2)C(=O)N1OS(=O)(=O)O
Reply: 0.5
